- System: NCI-H838
- runDescription: relative viability (nuclei count vs DMSO), 5 days (fraction); higher = more cells survive
- testContext: first compound 0.8 µM
quantityMeasured: relative viability

>  <compound>
O=c1[nH]c2ccccc2n1C1CCN(CCCC(c2ccc(F)cc2)c2ccc(F)cc2)CC1 [Pimozide] + N=C(N)NC(=N)NCCc1ccccc1 [Phenformin] (partner 250 µM)

>  <reading>
0.636

$$$$
>  <compound>
O=c1[nH]c2ccccc2n1C1CCN(CCCC(c2ccc(F)cc2)c2ccc(F)cc2)CC1 [Pimozide] + COc1cc2c(Oc3ccc(NC(=O)C4(C(=O)Nc5ccc(F)cc5)CC4)cc3F)ccnc2cc1OCCCN1CCOCC1 [Foretinib] (partner 0.25 µM)

>  <reading>
1.08

$$$$
>  <compound>
Cc1cnc(-c2cnc(NCCNc3ccc(C#N)cn3)nc2-c2ccc(Cl)cc2Cl)[nH]1 + COc1cc2c(Oc3ccc(NC(=O)C4(C(=O)Nc5ccc(F)cc5)CC4)cc3F)ccnc2cc1OCCCN1CCOCC1 [Foretinib] (partner 0.25 µM)

>  <reading>
1.15

$$$$
>  <compound>
O=c1[nH]c2ccccc2n1C1CCN(CCCC(c2ccc(F)cc2)c2ccc(F)cc2)CC1 [Pimozide] + CS(=O)(=O)CCNCc1ccc(-c2ccc3ncnc(Nc4ccc(OCc5cccc(F)c5)c(Cl)c4)c3c2)o1 [Lapatinib] (partner 2 µM)

>  <reading>
0.954

$$$$
